biological target: ESO157 A5 peptide (…)/HLA-A*02:01 complex on T2 cells (human); assay: FACS, peptide-pulsed T2 cells
Binary label based on MFI with cut-off 200: below gives yes (1), not below gives no (0).

Known results for binders:
phage clone #66, anti-ESO157/HLA-A*02:01 scFv displayed on phage (scFv, V domains shown) VH: EVQLVESGAEVKRPGASVKVSCKASGYTFTSYGISWVRQAPGQGLEWMGRFIPNLNKGNSAHKFEGRVSFTADKFTNTAYMELRGLKSDDTAVYYCARGDYGSDQWGQGTLVTVSS VL: QSVLTQPPSVSGAPGQRVTISCTGSSSNIGAGYDVHWYQQLPGTAPKLLIYGNSNRPSGVPDRFSGSKSGTSASLAITGLQAEDEADYYCQSYDSSLSGSWVFGGGTKLTVLG = no (0)
phage clone #52, anti-ESO157/HLA-A*02:01 scFv displayed on phage (scFv, V domains shown) VH: QVQLVQSGAEVKKPGASVKVSCKASGYTFTSYGISWVRQAPGQGLEWMGWISAYNGNTNYAQKLQGRVTMTTDTSTSTAYMELRSLRSDDTAVYYCARYSGYYAGDSWGQGTLVTVSS VL: QSVLTQPPSVSGAPGQRVTISCTGSSSNIGAGYDVHWYQQLPGTAPKLLIYGDTNRPSGVPDRISGSKSGTSASLAITGLQAEDEADYYCQSYDSNLYTYVFGTGTKVTVLG = yes (1)
phage clone #76, anti-ESO157/HLA-A*02:01 scFv displayed on phage (scFv, V domains shown) VH: EVQLVQSGAEVKKPGSSVKVSCKASGGTFSSYAISWVRQAPGQGLEWMGGIIPIFGTANYAQKFQGRVTITADESTSTAYMELSSLRSEDTAVYYCARYDSYVYDEWGQGTLVTVSS VL: QSVVTQPPSLSGAPGQRVTISCNGSGSNIGAGYDVHWYQQLPGTAPKLLIYGNSNRPSGVPDRFSGSKSGTSASLAITGLQAEDEADYYCQSYDSSLSGWGIFGGGTKLTVLG = yes (1)
phage clone #116, anti-ESO157/HLA-A*02:01 scFv displayed on phage (scFv, V domains shown) VH: QVQLVQSGPEVKKPGASMKVSCKASGYTFTKYGISWVRQAPGQGLEWMGWISADSGKTSYAQNLQGRVSLTIDTSTATAYMELRSLRSDDTAVYYCARDDDSWGQGTLVTVSS VL: QSVLTQPPSVSAAPGQKVTISCSGSSSNIGNNYVSWYQQLPGTAPKLLIYDNNKRPSGIPDRFSGSKSGTSATLGITGLQTGDEADYYCGTWDSSLSAEVFGTGTKVTVLG = no (0)
phage clone #148, anti-ESO157/HLA-A*02:01 scFv displayed on phage (scFv, V domains shown) VH: EVQLVQSGAEVKKPGASVKVSCKASGGTFSSYAISWVRQAPGQGLEWMGGIIPIFGTANYAQKFQGRVTITADKSTSTAYMELSSLRSEDTAVYYCARSYWSWTPYDPWGQGTLVTVSS VL: LPVLTQPPSVSVAPGKTARITCGGNNIGSKSVHWYQQKPGQAPVLVIYYDSDRPSGIPERFSGSNSGNTATLTISRVEAGDEADYYCQVWDSSSDHYVFGTGTKVTVLG = no (0)

Now turn to the next binder.
Given phage clone #35, anti-ESO157/HLA-A*02:01 scFv displayed on phage (scFv, V domains shown, also called parental phage clone #35) VH: QVQLVQSGAEVKKPGSSVKVSCKASGDTFSSYSISWVRQAPGQGLEWMGRIIPILGIANYAQKYQGRVTLSADKSTSTSYMELNSLRSEDTAVYYCARDWSYSIDYWGQGTLVTVSS VL: QSVVTQPPSVSAAPGQKVTISCSGSSSNIGNNYVSWYQQLPGTAPKLLIYDNNKRPSGIPDRFSGSKSGTSATLGITGLQTGDEADYYCGTWDSSLSAWVFGGGTKLTVLG , is recorded MFI strictly lower than 200?
yes (1)

Each recorded value in this set is attributed to patent US20190382504A1.
